Origin of values: PubChem BioAssay

# testedSystem: Nuclear receptor coactivator 3 (Homo sapiens)
# assay: SRC3 coactivator transcriptional activity inhibitors, confirmation, cell-based, luminescence, quadruplicate (AID 588792)
# setupConditions: HEK293 GAL4-SRC3 luciferase reporter, at 3.6 µM, stronger effect = higher value
T means recorded inhibition is 30% or above; F means it is below 30%.

Some solved cases for reference:
# compound, categoryLabel
measured = [
    ("COC(=O)c1ccc2nc(Nc3nc4c(F)cc(F)cc4s3)sc2c1", "F"),
    ("Cc1cc(/C=C2/C(=O)NN(c3ccccc3)C2=O)c(C)n1-c1ccc(O)cc1", "F"),
    ("COc1ccc(-n2c(=S)[nH]c3cc(C(=O)Nc4ccc(F)cc4)ccc3c2=O)c(OC)c1", "F"),
    ("CCN(CC)c1ccc(C(=C2C=CC(=[N+](CC)CC)C=C2)c2ccccc2)cc1", "T"),
    ("CCc1ccc(N2CC(C(=O)N/N=C/c3cc([N+](=O)[O-])ccc3O)CC2=O)cc1 (configuration not stated)", "F"),
    ("CC(C)(C)c1ccc(-c2cn(-c3ccc(Br)cc3)c3[n+]2CCCS3)cc1", "T"),
    ("Cc1cccc[n+]1CC(=O)/C=C1\\N(C)c2ccccc2C1(C)C", "F"),
    ("OCCCNc1cc(-c2ccnc(Nc3cccc(Cl)c3)n2)ccn1", "T"),
    ("COc1ccccc1C(=O)N(CCC1CCCN1C)c1nc2ccccc2s1 (configuration not stated)", "T"),
    ("S=C(NCCCCN(Cc1ccc(Cl)cc1)c1ccc(Br)cn1)NCCCc1cnc[nH]1", "T"),
]

Task: Dear colleague, could you confirm whether `Cc1cc2c(=Cc3ccc(N(C)C)cc3)c3ccccc3n2[n+]1C` has inhibition at or above 30%?
Output: T

Task: Evaluate Cc1ccsc1C(=O)C1CCCN(Cc2cccn2-c2ccc(Cl)cn2)C1 (configuration not stated) : inhibition at minimum 30%?
Output: F

Task: Check the entry CCC(C)N(CC(=O)Nc1cccc(C)c1C)C(=O)CCl (configuration not stated) : does inhibition equal or exceed 30%?
Output: T

Task: Has `CCOC(=O)c1c2c(n(-c3ccc(OC)cc3)c1C)C(=O)C(=O)c1ccccc1-2` a recorded inhibition greater than or equal to 30%?
Output: T

Task: Reported inhibition reaches at least 30% for `CN1CCN(c2ncnc3scc(-c4ccccc4Cl)c23)CC1` ?
Output: T

----------
# testedSystem: Nuclear receptor coactivator 3 (Homo sapiens) (UniProt Q9Y6Q9)
# Sequence (Q9Y6Q9 whole entry, looked up): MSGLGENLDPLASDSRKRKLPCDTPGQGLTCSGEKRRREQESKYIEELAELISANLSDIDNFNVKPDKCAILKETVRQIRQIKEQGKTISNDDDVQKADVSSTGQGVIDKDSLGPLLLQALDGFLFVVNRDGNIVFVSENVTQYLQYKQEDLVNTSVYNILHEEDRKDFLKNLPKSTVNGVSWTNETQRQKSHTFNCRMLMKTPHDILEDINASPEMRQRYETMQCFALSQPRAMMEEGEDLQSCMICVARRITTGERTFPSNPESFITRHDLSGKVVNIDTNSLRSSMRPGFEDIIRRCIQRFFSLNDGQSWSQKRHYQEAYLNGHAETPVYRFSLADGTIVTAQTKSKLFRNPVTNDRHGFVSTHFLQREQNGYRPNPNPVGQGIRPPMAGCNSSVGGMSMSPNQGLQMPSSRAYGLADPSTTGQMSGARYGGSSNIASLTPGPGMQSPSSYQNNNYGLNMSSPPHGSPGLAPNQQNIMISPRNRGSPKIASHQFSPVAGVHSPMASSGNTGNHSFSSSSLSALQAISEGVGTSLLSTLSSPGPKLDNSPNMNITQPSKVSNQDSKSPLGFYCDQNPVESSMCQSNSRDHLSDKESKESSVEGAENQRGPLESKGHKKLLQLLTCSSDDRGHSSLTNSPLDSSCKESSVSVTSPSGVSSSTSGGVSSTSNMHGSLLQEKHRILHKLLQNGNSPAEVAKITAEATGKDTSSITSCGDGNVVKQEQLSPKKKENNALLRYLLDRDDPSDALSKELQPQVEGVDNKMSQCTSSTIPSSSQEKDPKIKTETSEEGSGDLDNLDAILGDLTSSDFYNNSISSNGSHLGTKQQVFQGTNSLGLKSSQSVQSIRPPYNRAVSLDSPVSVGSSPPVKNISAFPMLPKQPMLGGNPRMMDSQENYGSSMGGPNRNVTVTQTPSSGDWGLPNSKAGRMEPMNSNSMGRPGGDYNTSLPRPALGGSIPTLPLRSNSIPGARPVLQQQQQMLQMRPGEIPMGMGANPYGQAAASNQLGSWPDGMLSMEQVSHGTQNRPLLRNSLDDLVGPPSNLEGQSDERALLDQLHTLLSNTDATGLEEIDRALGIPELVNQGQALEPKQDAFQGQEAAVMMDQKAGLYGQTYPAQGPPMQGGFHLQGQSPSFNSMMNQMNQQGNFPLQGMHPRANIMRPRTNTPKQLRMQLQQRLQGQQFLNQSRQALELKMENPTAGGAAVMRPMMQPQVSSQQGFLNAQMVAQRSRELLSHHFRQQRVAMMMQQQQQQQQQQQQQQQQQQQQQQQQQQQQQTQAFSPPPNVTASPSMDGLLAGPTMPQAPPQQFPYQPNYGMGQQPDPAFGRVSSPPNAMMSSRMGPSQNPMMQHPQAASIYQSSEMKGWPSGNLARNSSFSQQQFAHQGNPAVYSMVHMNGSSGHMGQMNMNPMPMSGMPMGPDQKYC
# assay: SRC3 coactivator transcriptional activity inhibitors, confirmation, cell-based, luminescence, quadruplicate (AID 588792)
# setupConditions: HEK293 GAL4-SRC3 luciferase reporter, at 3.6 µM
Activity calls are given as the source filed them.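 Rule for the calls: active = mean inhibition over 43.08%, the solvent-only control mean plus 3 SD; inactive = the rest.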
Allowed answers: TRUE = active, FALSE = inactive

# molecule, testedSystem, categoryLabel
records = [
    ("O=S(=O)(CC(CN1CCCCC1)N1CCCCC1)c1ccc2ccccc2c1 (stereo not given)", "Nuclear receptor coactivator 3 (Homo sapiens) (UniProt Q9Y6Q9)", "FALSE"),
]

Task: Call for entry `O=C(N/N=C/c1c(O)ccc2ccccc12)c1[nH]ncc1Br` :
Output: TRUE

Task: What call does the record list for CC1CCCN(c2ncnc3c2cnn3-c2ccc(Cl)cc2)C1 (stereo not given) ?
Output: TRUE

Task: What call does the record list for `C=CC[C@@H](CC(=O)NCCO)C(=O)NC[C@H](OC(=O)[C@@H](CC=C)Cc1ccc(F)cc1)c1ccccc1` ?
Output: FALSE

Task: Hi team, can someone confirm the assay call for `Nc1ccc(-c2nc3c(Cl)cc(N)cc3[nH]2)cc1` ?
Output: FALSE
